Test system: EKVX
Assay: relative viability (nuclei count vs DMSO), 5 days (fraction); higher = more cells survive
Conditions: first compound 0.002 µM
Hi there, I'd appreciate the recorded relative viability for every entry that follows.
Just the number, please, no unit attached.

### Prompt What relative viability value was documented for this molecule, CCNC(=O)c1noc(-c2cc(C(C)C)c(O)cc2O)c1-c1ccc(CN2CCOCC2)cc1 [Luminespib] + COc1cccc2cc(-c3nc([C@H]4CC[C@H](C(=O)O)CC4)n4ncnc(N)c34)[nH]c12 [OSI-027] (partner 0.5 µM) ?
### Response 0.631

### Prompt Another molecule to look at: CCNC(=O)c1noc(-c2cc(C(C)C)c(O)cc2O)c1-c1ccc(CN2CCOCC2)cc1 [Luminespib] + CC(=O)c1c(C)c2cnc(Nc3ccc(N4CCNCC4)cn3)nc2n(C2CCCC2)c1=O [Palbociclib] (partner 0.5 µM)
### Response 0.431

### Prompt Another molecule to look at: CCNC(=O)c1noc(-c2cc(C(C)C)c(O)cc2O)c1-c1ccc(CN2CCOCC2)cc1 [Luminespib] + Cc1nc(NC(=O)N2CCC[C@H]2C(N)=O)sc1-c1ccnc(C(C)(C)C(F)(F)F)c1 [Alpelisib] (partner 2 µM)
### Response 0.972
